EXPERIMENTAL SYSTEM: T1, TOK107-hIg (human)
T1 construct: Expressed in HEK293 cells; Fc mutated at the CH1 cysteine and at lysine 235 and glycine 237 to alanine; also called hGCC-ECD/hIgG1 Fc; TOK107-hIgG
T1 sequence (chain, as listed by the source limits assumed): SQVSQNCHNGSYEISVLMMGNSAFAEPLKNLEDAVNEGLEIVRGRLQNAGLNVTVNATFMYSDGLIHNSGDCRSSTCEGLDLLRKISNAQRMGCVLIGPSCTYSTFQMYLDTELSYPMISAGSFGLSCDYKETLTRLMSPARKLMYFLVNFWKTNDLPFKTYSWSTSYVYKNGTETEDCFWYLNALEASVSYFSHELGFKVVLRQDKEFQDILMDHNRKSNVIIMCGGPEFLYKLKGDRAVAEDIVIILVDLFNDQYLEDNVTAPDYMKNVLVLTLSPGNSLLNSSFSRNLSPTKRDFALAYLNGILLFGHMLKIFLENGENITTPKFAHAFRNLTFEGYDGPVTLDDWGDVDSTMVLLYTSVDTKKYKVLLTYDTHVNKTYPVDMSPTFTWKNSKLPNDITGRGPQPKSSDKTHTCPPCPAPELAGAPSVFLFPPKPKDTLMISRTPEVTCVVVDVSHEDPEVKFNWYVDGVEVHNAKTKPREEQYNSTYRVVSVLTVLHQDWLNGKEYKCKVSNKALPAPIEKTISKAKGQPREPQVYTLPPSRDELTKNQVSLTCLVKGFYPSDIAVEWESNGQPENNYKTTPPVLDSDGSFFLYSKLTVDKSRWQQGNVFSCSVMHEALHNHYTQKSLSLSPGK
ASSAY OVERVIEW: ELISA against TOK107-hIg
# log10 EC50 values compiled below
Remember, log10 of EC50, in nM.

mAb Abx-020 (antibody, IgG1, V domains shown) VH: QVQLVESGGGLVKPGGSLRLSCAASGFTFSDYYMSWIRQAPGKGLEWISYITSSGSTIYYSASVKGRFTISRDNAKNSLYLQMNSLRAEDTAVYYCARDFSGWFGVHFDYWGQGTLVTVSS VL: DIVMTQTPLSLSVTPGQPASISCKSSQSLLHSDGKTYLYWYLQKPGQPPQLLIYEVSNRFSGVPNRFSGSGSGTDFTLKISRVEAEDVGVYYCMQSIQLTWTFGQGTKVEIK ... 0.66
mAb Abx-229 (antibody, V domains shown) VH: EVQLLESGGGLVQPGGSLRLSCAASGFTFSRYAMNWVRQAPGKGLEWVSGISGSGGRTYYADSVKGRFTISRDNSKNTLYLQMNSLRAEDTAVYYCAKDRDFWSGPFDYWGQGTLVTVSS VL: EIVMTPSSATLSVSPGERATLSCRASQSVSRNLAWYQQKPGQAPRLLIYGASTRATGIPARFSGSGSGTEFTLTISSLQSEDFAVYYCHQYSNWMCSFGQGTKLEIK ... 1.47
mAb Abx-198 (antibody, IgG1, V domains shown) VH: EVQLLESGGGLVQPGGSLRLSCAASGFTFSSYAMSWVRQAPGKGLDWVSDISGSGGSTYYADSVKGRFTISRDNSKNTLYLQMHSLSAEDTAIYYCAKRRWQGYFDLWGRGTLVTVSS VL: EIVLTQSPGTLSLSPGERATLSCRARQRVDSRYLAWYQQKPGQAPRLLIYGASSRATGIPDRFSGSGSGTDFTLTISRLEPEDFAVYYCQQYGSSPLTFGGGTKVEIK ... 1.68
mAb Abx-221 (antibody, V domains shown) VH: EVQLLESGGGLVQPGGSLRLSCAASGFTFSRYAMNWVRQAPGKGLEWVSGISGSGGSTYYADSVKGRFTISRDNSKNTLYLQMNSLRAEDTAVYYCAKDRDFWSGPFDYWGQGTLVTVSS VL: EIVMTPSSATLSVSPGERATLSCRASQSVSRSLAWYQQKPGQAPRLLIYGASTRATGIPARFSGSGSGTEFTLTISSLQSEDVAVYYCQQYNNWMCSFGQGTKLEIK ... 0.82

Now turn to the next binder.
Lookup: Requested field: log10 EC50. Item: mAb 3G1 (antibody, IgG1, V domains shown) VH: QVQLKESGPGLVAPSQSLSITCTVSGFSLSRNAISWVRQPPGKGLEWLGVIWTGGGTNYNSALKSRLSIRKENSKSQVFLKMNSLQTEDTARYFCARSGYDGFDYWGQGTLVTVSA VL: QIVLTQSPAIMSASPGEKVTMTCSASSSVNYMHWYQQKSGTSPKRWIYDTSKLASGVPARFSGSGSGTSYSLTITSMEAEDAATYYCQQWSGNPYTFGGGTKLEIK
Found: 1.36
